Values of Average (percentage cell inhibition), Dmastoparan MDA-MB231 12.5uM reported for MDA-MB-231 cells appear below.
# number only, unit % dropped from output

Worked cases, answers included:
CC[C@H](C)[C@H](N)C(=O)N[C@@H](CC(N)=O)C(=O)N[C@@H](CC(C)C)C(=O)N[C@@H](CCCCN)C(=O)N[C@@H](C)C(=O)N[C@@H](CC(C)C)C(=O)N[C@@H](C)C(=O)N[C@@H](C)C(=O)N[C@@H](CC(C)C)C(=O)N[C@@H](CCCCN)C(=O)N[C@@H](CCCCN)C(=O)N[C@@H](CCCCN)C(=O)N[C@H](C(=O)N[C@@H](CC(C)C)C(N)=O)[C@@H](C)CC ... 22.5673
CC[C@H](C)[C@H](N)C(=O)N[C@@H](CC(N)=O)C(=O)N[C@@H](CC(C)C)C(=O)N[C@@H](CCCCN)C(=O)N[C@@H](CCC(N)=O)C(=O)N[C@@H](CC(C)C)C(=O)N[C@@H](C)C(=O)N[C@@H](C)C(=O)N[C@@H](CC(C)C)C(=O)N[C@@H](C)C(=O)N[C@@H](CCCCN)C(=O)N[C@@H](CCCCN)C(=O)N[C@H](C(=O)N[C@@H](CC(C)C)C(N)=O)[C@@H](C)CC ... 41.3502
CC[C@H](C)[C@H](N)C(=O)N[C@@H](CC(N)=O)C(=O)N[C@@H](CC(C)C)C(=O)N[C@@H](CCCCN)C(=O)N[C@@H](C)C(=O)N[C@@H](CC(C)C)C(=O)N[C@@H](C)C(=O)N[C@@H](C)C(=O)N[C@@H](Cc1ccc(O)cc1)C(=O)N[C@@H](C)C(=O)N[C@@H](CCCCN)C(=O)N[C@@H](CCCCN)C(=O)N[C@H](C(=O)N[C@@H](CC(C)C)C(N)=O)[C@@H](C)CC ... 27.288
CC[C@H](C)[C@H](NC(=O)[C@H](CCCCN)NC(=O)[C@H](CCCCN)NC(=O)[C@H](C)NC(=O)[C@H](CC(C)C)NC(=O)[C@H](C)NC(=O)[C@H](C)NC(=O)[C@H](CC(C)C)NC(=O)[C@H](C)NC(=O)[C@H](CCCCN)NC(=O)[C@H](CC(C)C)NC(=O)[C@H](CC(N)=O)NC(=O)[C@@H](N)[C@@H](C)O)C(=O)N[C@@H](CC(C)C)C(N)=O ... 37.2219
CC[C@H](C)[C@H](N)C(=O)N[C@@H](CC(N)=O)C(=O)N[C@@H](CC(C)C)C(=O)N[C@@H](CCCCN)C(=O)N[C@@H](C)C(=O)N[C@@H](CC(C)C)C(=O)N[C@@H](C)C(=O)N[C@@H](C)C(=O)N[C@@H](CC(C)C)C(=O)N[C@@H](C)C(=O)NCC(=O)N[C@@H](CCCCN)C(=O)N[C@H](C(=O)N[C@@H](CC(C)C)C(N)=O)[C@@H](C)CC ... 29.778

Switching to the query record.
Input line: Reported Average (percentage cell inhibition), Dmastoparan MDA-MB231 12.5uM, compound "CC[C@H](C)[C@H](N)C(=O)N[C@@H](CC(N)=O)C(=O)N[C@@H](CC(C)C)C(=O)N[C@@H](CCCCN)C(=O)N[C@@H](C)C(=O)N[C@@H](CC(C)C)C(=O)N[C@@H](C)C(=O)N[C@@H](C)C(=O)N[C@@H](CC(C)C)C(=O)N[C@@H](C)C(=O)N[C@@H](CCCCN)C(=O)N[C@@H](CCCCN)C(=O)N[C@@H](CCCNC(=N)N)C(=O)N[C@@H](CC(C)C)C(N)=O" : ____
Output line: 13.2975

Hello, the source for this data is paper PMC12748989, in case you need it.
